// reported growth for each item listed
System: SN12C renal
Test: NCI-60 one-dose screen, 48 h (100 = growth as untreated, 0 = no growth, -100 = all killed)
Details: 10 µM unless noted
Procedure: Growth inhibition of the SN12C human tumor cell line is measured as a screen for anti-cancer activity. Cells are grown in 96 well plates and exposed to the test compound for 48 hours. Compounds are tested at a single concentration, which is 10^-5 M for most compounds. The reported endpoint is percent growth (GI% or GIPRCNT), where numbers from 0 - 100% represent growth inhibition, and numbers from -100% - 0 represent cell death. For example, a value of 40 represents 60% growth inhibition. […]
This is part of a sample that, as a whole, favours compounds with a hit. Of some 83,000 tested, about 20% had one in any assay.
Form entry: value (%) — number only.

Sample answers from the record:
[
  {
    "STRUCTURE": "C/C(Cc1ccc(Cl)cc1)=C(/c1ccc(Cl)cc1)c1ccc(OCCN2CCCC2)cc1",
    "TEST SYSTEM": "SN12C renal",
    "UOM": "%",
    "OBSERVED VALUE": 81.6
  },
  {
    "STRUCTURE": "C/C(=C(/c1ccccc1)c1ccc(N2C(=O)c3cccc4c(NCc5ccccc5)ccc(c34)C2=O)cc1)c1ccccc1",
    "TEST SYSTEM": "SN12C renal",
    "UOM": "%",
    "OBSERVED VALUE": 92
  },
  {
    "STRUCTURE": "Cc1oc(-c2ccccc2Cl)cc1C(=O)Nc1ccc(S(N)(=O)=O)cc1",
    "TEST SYSTEM": "SN12C renal",
    "UOM": "%",
    "OBSERVED VALUE": 98.2
  },
  {
    "STRUCTURE": "COc1cc2[nH]c(C(=O)c3cc(OC)c(OC)c(OC)c3)c(N)c2cc1C#CC1CC1",
    "TEST SYSTEM": "SN12C renal",
    "UOM": "%",
    "OBSERVED VALUE": 61
  },
  {
    "STRUCTURE": "C=COCCCCCCCCCCCCCCCCCC",
    "TEST SYSTEM": "SN12C renal",
    "UOM": "%",
    "OBSERVED VALUE": 88.4
  },
  {
    "STRUCTURE": "Cn1cccc1/C=C1/SC(=S)N(CCc2ccc(O)cc2)C1=O",
    "TEST SYSTEM": "SN12C renal",
    "UOM": "%",
    "OBSERVED VALUE": 60
  },
  {
    "STRUCTURE": "COC(=O)[C@]12CC[C@@H](C)[C@H](C)[C@@H]1C1=CC[C@@H]3[C@@]4(C)C[C@@H](O)[C@H](O)[C@@](C)(CO)C4=CC[C@@]3(C)[C@]1(C)CC2",
    "TEST SYSTEM": "SN12C renal",
    "UOM": "%",
    "OBSERVED VALUE": -71.5
  },
  {
    "STRUCTURE": "CCCCCCCN(CCCCCCC)C(=N)c1ccnc2ccccc12",
    "TEST SYSTEM": "SN12C renal",
    "UOM": "%",
    "OBSERVED VALUE": -42
  },
  {
    "STRUCTURE": "N#C/C(=C\\c1ccc(-c2ccccc2)o1)c1nc(-c2ccco2)cs1",
    "TEST SYSTEM": "SN12C renal",
    "UOM": "%",
    "OBSERVED VALUE": 92.3
  }
]

// next entry
Could you please provide reported growth for O=C1CNCCN1 ? Thanks!
97.8
